Measurement notes: Determination of cooling effect: drop in temperature on dissolving sweetener powder in distilled water at 37° C.
Assay type: physicochemical
Experimental conditions: cooling effect of sweeteners, tested in duplicate, mean
Measured property: Magnitude of reduction in temperature at T = 90 seconds (° C.) (°C)
Give bare numbers, in °C.

Previously resolved entries follow.
compound="OC[C@@H](O)[C@@H](O)[C@H](O)[C@H](O)CO [Mannitol]" units_of_measure=°C number=13.0
compound="OC[C@H]1O[C@@](CO)(O[C@H]2O[C@H](CO)[C@@H](O)[C@H](O)[C@H]2O)[C@@H](O)[C@@H]1O [Sugar, sucrose]" units_of_measure=°C number=13.5
compound="O=C[C@H](O)[C@@H](O)[C@@H](O)[C@H](O)CO [Galactose, galactose]" units_of_measure=°C number=11.0
compound="OC[C@@H](O)[C@H](O)[C@@H](O)CO [Xylitol, xylitol]" units_of_measure=°C number=26.0

// each listed compound needs a value for Magnitude of reduction in temperature at T = 90 seconds (° C.)
1. O.O=C[C@H](O)[C@@H](O)[C@H](O)[C@H](O)CO [Dextrose Monohydrate, dextrose monohydrate]
2. OC[C@@H](O)[C@@H](O[C@H]1O[C@H](CO)[C@@H](O)[C@H](O)[C@H]1O)[C@H](O)[C@@H](O)CO [Maltitol]

1. 14.5
2. 16.5

====

Tested on: panel of 10-12 trained assessors
Measurement notes: Quantitative Descriptive Analysis of cooling effect (temperature decrease in the nose and mouth)
Format: in vivo
Experimental conditions: cooling effect; mean of at least 10 repetitions
From the text: Quantitative Descriptive Analysis was used to determine the salivation effect of the invention. Seven samples of confectionary were tasted by a panel of 10-12 trained assessors using the technique of Time-Intensity measurement. […] This technique involves the testing of the confectionary sample in a sensory booth. […] Each assessor measured the perceived intensity of salivating mouthfeel at 1 second intervals over a time period of 90 seconds for each sample. […]
Answer each item with its documented Increase Angle (°).
Give bare numbers, in °.

Here are 3 molecules together with their reported answers.
molecule=O=C[C@H](O)[C@@H](O)[C@@H](O)[C@H](O)CO measured_property="Increase Angle (°)" number=39.3
molecule="O.O=C[C@H](O)[C@@H](O)[C@H](O)[C@H](O)CO [Dextrose Monohydrate, dextrose monohydrate]" measured_property="Increase Angle (°)" number=36.5
molecule=OC[C@@H](O)[C@@H](O)CO measured_property="Increase Angle (°)" number=81.5

Now, please, on to the next molecule.
Form: Entry = OC[C@@H](O)[C@H](O)[C@@H](O)CO | System = panel of 10-12 trained assessors | Increase Angle (°) = ____
46

====

Kindly supply the reported Area under Curve values for the records listed here.
Test system: panel of 10-12 trained assessors
Measurement notes: Determination of salivation effect: Quantitative Descriptive Analysis, Time-Intensity measurement of salivating mouthfeel
Type: in vivo
Experimental conditions: salivating effect; relative values; chewy confectionary with 46.0 wt % test sweetener; 90 second test period; mean of at least 13 repetitions

Worked cases, answers included:
compound=O=C[C@H](O)[C@@H](O)[C@@H](O)[C@H](O)CO measured_property="Area under Curve" result=3561
compound="OC[C@H]1O[C@H](OC[C@H]2OC(O)(CO)[C@@H](O)[C@@H]2O)[C@H](O)[C@@H](O)[C@@H]1O (stereo partly shown)" measured_property="Area under Curve" result=1898
compound=OC[C@H]1O[C@H](O[C@H]2O[C@H](CO)[C@@H](O)[C@H](O)[C@H]2O)[C@H](O)[C@@H](O)[C@@H]1O measured_property="Area under Curve" result=2253
compound=OC[C@H]1O[C@@](CO)(O[C@H]2O[C@H](CO)[C@@H](O)[C@H](O)[C@H]2O)[C@@H](O)[C@@H]1O measured_property="Area under Curve" result=1673
compound=OC[C@@H](O)[C@H](O)[C@@H](O)CO measured_property="Area under Curve" result=2874
compound="O.O=C[C@H](O)[C@@H](O)[C@H](O)[C@H](O)CO [Dextrose Monohydrate, dextrose monohydrate]" measured_property="Area under Curve" result=2306

Next compound, Area under Curve to be filled in.
Which measured Area under Curve value corresponds to OC[C@@H](O)[C@@H](O)CO ?
4079

====

Tested on: panel of 10-12 trained assessors
Measurement notes: Quantitative Descriptive Analysis of cooling effect (temperature decrease in the nose and mouth)
Type: in vivo
Experimental conditions: table of cooling effect parameters; mean of at least 10 repetitions
I'd be grateful if you could share measured Time to maximum cooling effect for these entries.
Answers are plain numbers, in s.

compound=OC[C@@H](O)[C@H](O)[C@@H](O)CO measured_property="Time to maximum cooling effect" units_of_measure=s number=64.5
compound=O=C[C@H](O)[C@@H](O)[C@@H](O)[C@H](O)CO measured_property="Time to maximum cooling effect" units_of_measure=s number=57.1
compound=OC[C@@H](O)[C@@H](O)CO measured_property="Time to maximum cooling effect" units_of_measure=s number=63.5

Here is the next item to consider.
Name the recorded Time to maximum cooling effect for O.O=C[C@H](O)[C@@H](O)[C@H](O)[C@H](O)CO [Dextrose Monohydrate, dextrose monohydrate] .
81.9

====

Tested on: panel of 10-12 trained assessors
Measurement notes: Quantitative Descriptive Analysis of cooling effect (temperature decrease in the nose and mouth)
Format: in vivo
Experimental conditions: cooling effect; relative values; mean of at least 10 repetitions
Text: Quantitative Descriptive Analysis was used to determine the salivation effect of the invention. Seven samples of confectionary were tasted by a panel of 10-12 trained assessors using the technique of Time-Intensity measurement. […] This technique involves the testing of the confectionary sample in a sensory booth. […] Each assessor measured the perceived intensity of salivating mouthfeel at 1 second intervals over a time period of 90 seconds for each sample. […]
Measured property: Area under Curve
Numbers only.

See these solved cases before continuing.
compound="O.O=C[C@H](O)[C@@H](O)[C@H](O)[C@H](O)CO [Dextrose Monohydrate, dextrose monohydrate]" target_desc="panel of 10-12 trained assessors" number=663
compound="OC[C@@H](O)[C@@H](O)CO [Erythritol, erythritol]" target_desc="panel of 10-12 trained assessors" number=3431
compound="OC[C@@H](O)[C@H](O)[C@@H](O)CO [Xylitol, xylitol]" target_desc="panel of 10-12 trained assessors" number=2457

# next compound below
I'm curious: which Area under Curve was measured for O=C[C@H](O)[C@@H](O)[C@@H](O)[C@H](O)CO [Galactose, galactose] tested on panel of 10-12 trained assessors?
725

====

System: panel of 10-12 trained assessors
Measurement notes: Determination of salivation effect: Quantitative Descriptive Analysis, Time-Intensity measurement of salivating mouthfeel
Format: in vivo
Experimental conditions: salivating effect; chewy confectionary with 46.0 wt % test sweetener; 90 second test period; mean of at least 13 repetitions
Doc: threshold 40 ° (exclusive). Items with Increase Angle (°) beneath it return fulfilled; others return not fulfilled.

Bench note: check whether OC[C@H]1O[C@@](CO)(O[C@H]2O[C@H](CO)[C@@H](O)[C@H](O)[C@H]2O)[C@@H](O)[C@@H]1O [Sugar, sucrose] shows Increase Angle (°) below 40 °
fulfilled

Below 40 ° on Increase Angle (°)? Entry O.O=C[C@H](O)[C@@H](O)[C@H](O)[C@H](O)CO [Dextrose Monohydrate, dextrose monohydrate]
fulfilled

Criterion: Increase Angle (°) strictly below 40 °. Is it met by OC[C@H]1O[C@H](OC[C@H]2OC(O)(CO)[C@@H](O)[C@@H]2O)[C@H](O)[C@@H](O)[C@@H]1O (stereo partly shown) [Isomaltulose, isomaltulose] ?
fulfilled

Is Increase Angle (°) of OC[C@H]1O[C@H](O[C@H]2O[C@H](CO)[C@@H](O)[C@H](O)[C@H]2O)[C@H](O)[C@@H](O)[C@@H]1O [Trehalose, trehalose] strictly below 40 °?
fulfilled

Take the compound O=C[C@H](O)[C@@H](O)[C@@H](O)[C@H](O)CO [Galactose, galactose] and say whether its Increase Angle (°) is less than 40 °.
not fulfilled

Please let me know if OC[C@@H](O)[C@@H](O)CO [Erythritol, erythritol] shows Increase Angle (°) below 40 °.
not fulfilled
